# Test system: panelists (cooling sensation in the mouth)
# assay procedure: Panel tasting of aqueous solutions: cooling intensity matched to menthol 2 ppm, and longevity
# Assay type: in vivo
# test conditions: aqueous solution at the chosen concentration of Table 2
Give Longevity (time until no cooling could be sensed in the mouth) for every item shown.
Enter your answer as a number in min; do not include the unit.

QUERY: Read the entry CC1CCC(C(C)C)C(C(=O)Nc2ccncc2)C1 (stereo not shown) [Example 1, N-(4-pyridinyl) p-menthanecarboxamide] and write its reported Longevity (time until no cooling could be sensed in the mouth).
RESULT: 50

QUERY: Identify measured Longevity (time until no cooling could be sensed in the mouth) corresponding to CCNC(=O)C1CC(C)CCC1C(C)C (stereo not shown) [N-ethyl p-menthanecarboxamide (WS-3), N-ethyl p-menthanecarboxamide, reference compound]
RESULT: 57

QUERY: Report measured Longevity (time until no cooling could be sensed in the mouth); entry is CC(C)[C@@H]1CC[C@@H](C)C[C@H]1O [l-Menthol, reference compound]
RESULT: 35

QUERY: Assign Longevity (time until no cooling could be sensed in the mouth) to the following record: "CC(C)[C@@H]1CC[C@@H](C)C[C@H]1C(=O)NCCc1ccccn1"
RESULT: 60

* * *

# Tested on: panelists (cooling sensation in the mouth)
# assay procedure: Panel tasting of aqueous solutions: cooling intensity matched to menthol 2 ppm, and longevity
# Format: in vivo
# test conditions: aqueous solution, tasted by a small panel
measure: Concentration with cooling intensity similar or slightly higher than menthol at 2 ppm (ppm)
Give a bare numeral; the unit ppm is implied.

QUERY: Return Concentration with cooling intensity similar or slightly higher than menthol at 2 ppm for the following compound: CCNC(=O)C1CC(C)CCC1C(C)C (centres unmarked) [N-ethyl p-menthanecarboxamide (WS-3), N-ethyl p-menthanecarboxamide, reference compound]
RESULT: 1.5

QUERY: Give the measured Concentration with cooling intensity similar or slightly higher than menthol at 2 ppm for CC(C)[C@@H]1CC[C@@H](C)C[C@H]1O [l-Menthol, reference compound]
RESULT: 2.0

QUERY: Annotate the compound CC1CCC(C(C)C)C(C(=O)Nc2ccncc2)C1 (centres unmarked) [Example 1, N-(4-pyridinyl) p-menthanecarboxamide] with its measured Concentration with cooling intensity similar or slightly higher than menthol at 2 ppm.
RESULT: 0.5

QUERY: In one line, give reported Concentration with cooling intensity similar or slightly higher than menthol at 2 ppm of the entry CC(C)[C@@H]1CC[C@@H](C)C[C@H]1C(=O)NCCc1ccccn1 [Example 2] .
RESULT: 0.02

QUERY: Supply recorded Concentration with cooling intensity similar or slightly higher than menthol at 2 ppm for CC(C)C(C)(C(=O)NCCc1ccccn1)C(C)C [Example 3] here.
RESULT: 0.4
